Taken from ChEMBL document CHEMBL1126169.

biological target: Adenosine A2 receptor (Rattus norvegicus, UniProt P29276+P30543); test: Binding affinity against adenosine A2 receptor using N-[3H]-ethyladenosin-5''-uronamide as radioligand in rat striatal membranes.; type: cell membranes
Outcome measure: Ki (µM)

CCCn1c(=O)c2nc(-c3cc4ccccc4o3)[nH]c2n(CCC)c1=O = 1.2
CCCn1c(=O)c2nc(C3CCC4CCCC43)[nH]c2n(CCC)c1=O (configuration not stated) = 0.33
CCCn1c(=O)c2nc(C(C)(C)CC)[nH]c2n(CCC)c1=O = 1
CCCn1c(=O)c2nc(C(C)(C)CCC)[nH]c2n(CCC)c1=O = 2.2

(1) CCCn1c(=O)c2nc(CC(C)(C)C)[nH]c2n(CCC)c1=O
(2) CCCn1c(=O)c2nc(C(O)(CC)CC)[nH]c2n(CCC)c1=O
Ask | Among 1 and 2 , whose measured Ki is the smaller figure? Give the label under which the chosen entry appears.
Reply | 1

###

biological target: Adenosine A2 receptor (Rattus norvegicus, UniProt P29276+P30543); experiment: Binding affinity against adenosine A2 receptor using N-[3H]-ethyladenosin-5''-uronamide as radioligand in rat striatal membranes.; assay type: cell membranes
Outcome measure: Ki (nM)

These solved cases illustrate the format of a correct answer.
CCCn1c(=O)c2nc(CC3CC3)[nH]c2n(CCC)c1=O = 1200
CCCn1c(=O)c2nc(C(C)(C)C)[nH]c2n(CCC)c1=O = 2300
CCCn1c(=O)c2nc(-c3ccco3)[nH]c2n(CCC)c1=O = 530
CCCn1c(=O)c2nc(-c3csc(C)n3)[nH]c2n(CCC)c1=O = 2300

(1) CCCn1c(=O)c2nc(C(C)(O)CC)[nH]c2n(CCC)c1=O (stereo unspecified)
(2) CCCn1c(=O)c2nc([C@H]3CC4C=CC3C4)[nH]c2n(CCC)c1=O (stereo partly specified)
(3) CCCn1c(=O)c2nc([C@@H]3CC4C=CC3C4)[nH]c2n(CCC)c1=O (stereo partly specified)
(4) CCCn1c(=O)c2nc(C3Cc4ccccc4C3)[nH]c2n(CCC)c1=O
Ask | Put the items in sequence by Ki, from largest down. Rank them, then answer with their labels in that order.
Reply | 1, 4, 3, 2
(1: 21000 nM, 4: 1700 nM, 3: 480 nM, 2: 210 nM)

###

biological target: Adenosine A2 receptor (Rattus norvegicus, UniProt P29276+P30543); assay: Binding affinity against adenosine A2 receptor using N-[3H]-ethyladenosin-5''-uronamide as radioligand in rat striatal membranes.; type: cell membranes
Outcome measure: Ki (µM)

(A) CCCn1c(=O)c2nc([C@@H]3CC4CCC3C4)[nH]c2n(CCC)c1=O (stereo partly specified)
(B) CCCn1c(=O)c2nc(C3(C)CCCCC3)[nH]c2n(CCC)c1=O
(C) CCCn1c(=O)c2nc(-c3cccs3)[nH]c2n(CCC)c1=O
(D) CCCn1c(=O)c2nc(-c3cccn3C)[nH]c2n(CCC)c1=O
Ask | List from greatest to least Ki. Sort and list the labels as requested.
Reply | D, C, B, A
(D: 6 µM, C: 1.9 µM, B: 1.2 µM, A: 0.44 µM)

###

Target: Adenosine receptor A1 (Rattus norvegicus)
Sequence (P25099 whole entry): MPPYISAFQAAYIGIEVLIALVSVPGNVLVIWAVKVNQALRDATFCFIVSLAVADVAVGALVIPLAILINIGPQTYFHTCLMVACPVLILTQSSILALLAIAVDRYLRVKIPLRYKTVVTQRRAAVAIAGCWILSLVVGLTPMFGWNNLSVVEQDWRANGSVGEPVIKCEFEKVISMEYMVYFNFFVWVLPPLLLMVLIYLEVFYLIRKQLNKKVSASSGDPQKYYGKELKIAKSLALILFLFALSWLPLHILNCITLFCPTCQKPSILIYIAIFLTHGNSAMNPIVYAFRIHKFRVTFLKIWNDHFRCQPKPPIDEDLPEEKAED
Outcome measure: Ki (nM)
Output spec: scalar in nM, unitless text.

Ask | Input OC[C@H]1O[C@@H](n2cnc3c(NC4CC5CCC4C5)ncnc32)[C@H](O)[C@@H]1O (stereo partly specified) , output reported Ki.
Reply | 0.91

###

target: Adenosine receptor A1 (Cavia porcellus, UniProt P47745); test: Binding affinity against Adenosine A1 receptor using N6-[3H]cyclohexyladenosine in guinea pig forebrain membranes; type: cell membranes, Brain membranes
pKi: −log10 of the molar value.
Outcome measure: pKi

CCCn1c(=O)c2nc(C3c4ccccc4-c4ccccc43)[nH]c2n(CCC)c1=O = 5.54
CCCn1c(=O)c2nc(-c3cnns3)[nH]c2n(CCC)c1=O = 5.36

###

Below, each of the molecules is paired with its reported Ki value.
biological target: Adenosine A2 receptor (Rattus norvegicus, UniProt P29276+P30543); experiment: Binding affinity against Adenosine A2 receptor using N-[3H]-ethyladenosin-5''-uronamide in rat striatal membranes; format: cell membranes, Striatum, Membrane

# count of solved cases: 4
CCCn1c(=O)c2nc(C3CCC4CCCC43)[nH]c2n(CCC)c1=O (stereo not given) = 0.56 µM
CCCn1c(=O)c2nc(-c3cc(S(=O)(=O)[O-])co3)[nH]c2n(CCC)c1=O.[K+] = > 10 µM
CCCn1c(=O)c2nc(-c3cnns3)[nH]c2n(CCC)c1=O = > 10 µM
CCCn1c(=O)[nH]c(=O)c2[nH]c(C34CC5CC(CC3C5)C4)nc21 = > 100 µM

Now take the following molecule into account.
Ask | Answer with the recorded Ki for the molecule listed here: CCCn1c(=O)c2nc(C3c4ccccc4-c4ccccc43)[nH]c2n(CCC)c1=O
Reply | > 100 µM

###

target: Adenosine receptor A1 (Cavia porcellus); assay: Binding affinity against adenosine A1 receptor using N6-[3H]cyclohexyladenosine as radioligand in guinea pig forebrain membranes; format: cell membranes, Brain membranes
pKi: −log10 of the molar value.
Outcome measure: pKi

# count of solved cases: 6
CCCn1c(=O)c2nc([C@@H]3CC4C=CC3C4)[nH]c2n(CCC)c1=O (stereo not given in full) = 8.37
CCCn1c(=O)c2nc([C@H]3CC4C=CC3C4)[nH]c2n(CCC)c1=O (stereo not given in full) = 8.47
CCCn1c(=O)c2nc([C@@H]3CC4CCC3C4)[nH]c2n(CCC)c1=O (stereo not given in full) = 8.42
CCCn1c(=O)c2[nH]c(C34C[C@H]5C[C@@H](C3)C[C@@H](C4)C5)nc2n(CCC)c1=O = 7.89
Cn1c(=O)c2[nH]c(C34CC5CC(CC3C5)C4)nc2n(C)c1=O = 7.39
CCCn1c(=O)c2nc(C3CCC4CCCC43)[nH]c2n(CCC)c1=O (stereo not given) = 8.46

(a) CCCn1c(=O)c2nc(C3(C)CCCCC3)[nH]c2n(CCC)c1=O
(b) OC[C@H]1OC(n2cnc3c(NC45C[C@H]6C[C@@H](C4)C[C@@H](C5)C6)ncnc32)[C@H](O)[C@@H]1O (stereo not given in full)
(c) CCCn1c(=O)c2nc(C(O)(CC)CC)[nH]c2n(CCC)c1=O
Ask | List items by pKi in falling order. Output spec: a listing of the labels in the requested order.
Reply | a, b, c

###

Molecular target: Adenosine receptor A1 (Cavia porcellus)
Sequence (P47745 whole entry): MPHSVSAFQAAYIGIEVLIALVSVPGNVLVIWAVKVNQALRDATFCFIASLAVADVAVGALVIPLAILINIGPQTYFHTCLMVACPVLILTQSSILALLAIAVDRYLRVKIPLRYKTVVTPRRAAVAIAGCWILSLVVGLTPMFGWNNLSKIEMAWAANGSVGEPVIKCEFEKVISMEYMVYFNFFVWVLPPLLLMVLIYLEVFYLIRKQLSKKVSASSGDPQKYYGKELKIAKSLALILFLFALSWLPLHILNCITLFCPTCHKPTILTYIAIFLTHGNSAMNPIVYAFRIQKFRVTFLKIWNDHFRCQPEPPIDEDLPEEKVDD
Test: Binding affinity against Adenosine A1 receptor using N6-[3H]cyclohexyladenosine in guinea pig membranes
Type: cell membranes
Outcome measure: pKi
Bear in mind: pKi is minus log10 of a mol/L concentration; give just that figure.

Ask | State its pKi: CCCn1c(=O)c2nc[nH]c2n(CCC)c1=O
Reply | 6.00

###

biological target: Adenosine receptor A1 (Cavia porcellus, UniProt P47745); assay: Inhibition of N6-[3H]cyclohexyladenosine binding to guinea pig forebrain membrane Adenosine A1 receptor
pKi: −log10 of the molar value.
Outcome measure: pKi

CC(C)Cn1c(=O)n(C)c(=O)c2[nH]c(C34CC5CC(CC3C5)C4)nc21 = 7.82
CC[C@H](C)Nc1ncnc2c1ncn2C1O[C@H](CO)[C@@H](O)[C@H]1O (single isomer, unassigned) = 9.10
CCCn1c(=O)c2nc[nH]c2n(CCC)c1=O = 5.85

(I) CCCn1c(=O)c2nc(C3CCC4CCCC43)[nH]c2n(CCC)c1=O (stereo not given)
(II) OC[C@H]1OC(n2cnc3c(NC(C4CC4)C4CC4)ncnc32)[C@H](O)[C@@H]1O (stereo not given in full)
Ask | Higher pKi between I and II ? I would appreciate it if you answered with the label of your choice.
Reply | II
(II: 9.12, I: 8.25)
